B1: POU domain, class 3, transcription factor 3, residues 320 to 388; numbered along this chain, P20264 (parent)
chain: DDLEQFAKQFKQRRIKLGFTQADVGLALGTLYGNVFSQTTICRFEALQLSFKNMCKLKPLLNKWLEEAD

# Variants of: B1
# Experimental Details: abundance fitness (aPCA) (normalised: wild type 0, dead -1); higher = more abundant; growth selection in yeast, the domain comes from the species named
# Details: Homo sapiens
Endpoint Label: abundance fitness
Please reply with the value in numeric form only.

Examples from the recorded data:
Q38F ... -0.356
D23K ... -0.764
A27M ... -0.427

What does the data say about its abundance fitness? Entry: `S37C`
-0.629

Next variant up: `N34Y`
-0.295

Then `F36E` ?
-0.121
